From: PubChem BioAssay (NCI)

Assay: NCI Yeast Anticancer Drug Screen. Data for the rad14 strain (AID 159);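 further: 0% = growth of vehicle-treated control cultures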
Conditions: S. cerevisiae rad14 strain growth inhibition; at 3.7 µM; hits give high values
About 79,000 compounds went through this panel and 15% of them were active in at least one assay; those are over-represented in the sample as a whole.
metric: growth inhibition (%)
Give your result in % as a bare value.

Solved entries (count: 5):
>>> df
                                   compound             metric  value_units  numeric_value
0  Cc1[nH]c2ccccc2c1C(c1ccc(N)cc1)c1c(C)[nH]c2ccccc12  growth inhibition            %              0
1  CC[C@@]1(O)C(=O)OCc2c1cc1n(c2=O)Cc2cc3c(CN(C)C)c(O)ccc3nc2-1  growth inhibition            %             -4
2  CCN(CC)CCNc1ccc([N+](=O)[O-])c2nc3ccc(OC)cc3c(N)c12  growth inhibition            %            -29
3  CCCCCCCCC/C=C/C=C/C(=O)NCC(=O)NC1C(O)C(O)C(Nc2ncnc3nc[nH]c23)OC1C(O)CO (configuration not stated)  growth inhibition            %             -5
4         Clc1cccc(C(Nc2nncs2)Nc2nncs2)c1Cl  growth inhibition            %             -2

Looking for the measured growth inhibition of c1ccc(-c2nc3cccnc3s2)cc1 , can you help?
0

---

Experiment: NCI Yeast Anticancer Drug Screen. Data for the wt1 strain (AID 149);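 further: 0% = growth of vehicle-treated wt1 cultures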
Details: S. cerevisiae wt1 strain (SPY 50644) growth inhibition; at 3.7 µM; hits give high values
Compounds without any hit were thinned out: in the full panel of roughly 79,000, 15% have a hit.
Reported growth inhibition values for the following compounds.
Give your result in % as a bare value.

Solved entries (count: 4):
                                   compound             metric  numeric_value
0  CN(C)CCOc1ccc2c(c1)C/C(=C/c1ncc([N+](=O)[O-])n1C)C2=O  growth inhibition              5
1                        OC1CSCCCSCCSCCCSC1  growth inhibition            -16
2  Cc1cc(O)cc(O)c1N=Nc1ccc([N+](=O)[O-])cc1  growth inhibition             17
3  COC1=CC(=O)C2C(C1=O)C(c1ccc(Cl)cc1)[C@@H]2C (stereo partly drawn)  growth inhibition             23

Looking for the measured growth inhibition of O=C(O)c1ccccc1-c1ccccc1C(=O)Nc1ccc2c(c1)Cc1ccccc1-2 , can you help?
7

---

Assay: NCI Yeast Anticancer Drug Screen. Data for the rad50 strain (AID 155);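 further: 0% = growth of vehicle-only cultures of the same strain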
Settings: S. cerevisiae rad50 strain growth inhibition; at 11.0 µM
This is part of a sample that, as a whole, favours compounds with a hit. Of some 79,000 tested, about 15% had one in any assay. Active and inactive are the calls of the source. Cut-off read from the data, not from the text of the source: active = growth inhibition above about 70%; inactive = the rest.
Outcome (select one): 1 (yes) = active, 0 (no) = inactive

                                   compound  class_assignment
0    CC(=O)Nc1ccc(/C=C(\C#N)c2ccc(C)cc2)cc1            0 (no)
1  O=C(O)C1OC1(c1cccc(Cl)c1)c1ccccc1Cl (stereo not drawn)            0 (no)
2  O=C1C=CC(=O)c2c(O)c(Nc3ccc(OC(F)(F)F)cc3)c(Cl)c(O)c21            0 (no)
3  COc1ccc(Br)c(C(=O)Sc2nnnn2-c2cccc(Cl)c2)c1            0 (no)
4  CCCCCCCCC/C=C/C=C/C(=O)NCC(=O)NC1C(O)C(O)C(Nc2ncnc3nc[nH]c23)OC1C(O)CO (stereo not drawn)            0 (no)

# lookup: test call for Cc1ccc(S(=O)(=O)NNC(=S)Nc2cccc3ccccc23)cc1
0 (no)

Also check CSC1=NNC(SC)=NN1
0 (no)

Also check CC(C(=O)N1C(=O)N(C(=O)[C@H](C)C(O)c2ccccc2)[C@H](c2ccccc2)[C@H]1c1ccccc1)[C@@H](O)c1ccccc1 (stereo partly drawn)
0 (no)

Also check CN(C)C[C@H]1CC[C@@H](CN(C)C)C1=O
0 (no)

Also check COc1ccc2c(c1)C(=O)c1ccccc1C2
0 (no)

Also check CC(=O)OCC(=O)C1(O)CCC2C3CCC4CCCCC4(C)C3CCC21C (stereo not drawn)
0 (no)

---

Experiment: NCI Yeast Anticancer Drug Screen. Data for the mgt1 strain (AID 153)
Conditions: S. cerevisiae mgt1 mutant growth inhibition; at 3.7 µM; hits give high values
About 79,000 compounds went through this panel and 15% of them were active in at least one assay; those are over-represented in the sample as a whole.
metric: growth inhibition (%)
Give your result in % as a bare value.

>>> df
                                   compound  value_units  numeric_value
0            CC1CCN(CCC(=O)c2ccc(Cl)cc2)CC1            %              4
1    CCN(CC)[P+](c1ccccc1O)(N(CC)CC)N(CC)CC            %            -42
2       Fc1ccc(NC(=S)SCc2ccc3c(c2)OCO3)cc1F            %             12
3  C(=C\c1ccccc1)/COc1ccccc1C(N1CCOCC1)n1nc2ccccc2n1 (centres undefined)            %              9
4  O=C(Nc1ccccc1)C(=O)C(C(=O)c1ccccc1)C(c1ccccc1)c1ccccc1 (centres undefined)            %              1
5  CCC[CH2][Ge]([CH2]CCC)([CH2]CCC)[O]C(=O)C(OC)c1ccccc1 (centres undefined)            %             -1
6     Cc1ccc(Cl)c2[nH]c(-c3ccccc3)cc(=O)c12            %             -3
7               CSC(=S)N/N=C(\C)c1cccc(C)n1            %            -11

Looking for the measured growth inhibition of N#CN1C2CCC1CC(=O)C2 , can you help?
-10

Also check Nc1ccccc1CC(O)C(=O)O (centres undefined)
-1

---

Assay: NCI Yeast Anticancer Drug Screen. Data for the mgt1 strain (AID 153)
Conditions: S. cerevisiae mgt1 mutant growth inhibition; at 3.7 µM; hits give high values
Description: Growth inhibition of yeast strains with defined genetic alterations is measured as a screen for potential anti-cancer activity. Selected strains with alterations in DNA damage repair or cell cycle control were exposed to compounds and growth inhibition was measured relative to vehicle treated controls. The strain used in this assay is mgt1
The panel holds about 79,000 compounds, 15% with a hit somewhere; the sample as a whole holds those more often.
metric: growth inhibition (%)
Give your result in % as a bare value.

>>> df
                              smiles_record  numeric_value
0   COC(=O)c1cc(-c2ccc(C)cc2)[nH]c(=O)c1C#N              0
1       CC(C)(C)c1nc2c(o1)C(=O)c1ccccc1C2=O            -16
2  NC1=NS(=O)(=O)N=C(N)C1=Cc1ccc([N+](=O)[O-])o1             16
3        CC(=O)ON1C(=O)c2cccc3cccc(c23)C1=O             46
4  C[C@@H]1C[C@H]2[C@@H]3CCC4=CC(=O)C=C[C@]4(C)[C@@]3(Cl)[C@@H](Cl)C[C@]2(C)[C@@]1(O)C(=O)COP(=O)(O)O              5

Looking for the measured growth inhibition of Cc1cc2c(cc1C(=O)CCC(=O)O)CC1(C2)Cc2cc(C)c(C(=O)CCC(=O)O)cc2C1 , can you help?
6

Also check COC(=O)C1=C(C)NC(C)=C(C(=O)OC)C1c1cccc(/[N+]([O-])=C/c2ccccc2)c1
4

Also check CC1=NN(c2cccc(Cl)c2)C(=O)C1
-44

Also check CSC(=S)Nc1cccc(C)n1
-29

Also check O=C1c2ccccc2C(=O)c2c(NC3CCCCC3)ccc(Nc3ccc(S(=O)(=O)O)cc3)c21
-1

---

Reported growth inhibition values for the following compounds.
Assay: NCI Yeast Anticancer Drug Screen. Data for the cln2 rad14 strain (AID 165);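 further: 0% = growth equal to vehicle treated cultures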
Settings: S. cerevisiae cln2 rad14 strain, at 50.0 µM (retest, dose inferred, filed as 5.0), hits give high values
This is part of a sample that, as a whole, favours compounds with a hit. Of some 79,000 tested, about 15% had one in any assay. Calls of active or inactive are those of the source. No stated cut-off is given here; in the data, active means growth inhibition above about 70%; inactive means the rest.

                                   compound             metric        result
0  CC1C(NNc2ccccc2)Oc2cc3c(cc2C1c1ccccc1O)OCO3 (stereo not drawn)  growth inhibition  97% (active)

Looking for the measured growth inhibition of O=S(=O)(CCCl)c1ccccc1Cl , can you help?
25% (inactive)

Also check NC(=NCc1ccccc1)N/N=C\c1ccnc2ccccc12
62% (inactive)
